Biological target: triple Tudor domain (3TD) of SETDB1, wildtype, as used in solution (ITC, NMR, crystals) (UniProt Q15047 190-410)
Assay: NMR
Where no end group is shown, it is not given here.
READOUT_NAME: Kd (µM)
Hi! Could you send only the number? It should be in µM, unit omitted.

Req: Report Kd for KQTARKSTGGK(Ac)APRKQ [monomodified H3K14ac peptide in solution (ITC, NMR; crystal)] please.
Resp: 930

Data origin, for the record: paper PMC5727127
